assay: Human HepG2 cell viability assay in 384 well format; assay type: toxicity, cell-based; set-up: dose 125 nL, time 70.5 hour; concentration not given beside the values; conditions: HepG2 cells, read-out: Inhibition
reported metric: cytotoxicity at 70.5 h (%)
Write it as a number; the unit % goes unstated.

* CCN(Cc1cccc2c1OCO2)CC1CCCO1 (configuration not stated) | -6.33

[Q] Which cytotoxicity at 70.5 h value belongs to CCS(=O)(=O)N1CCc2ccc(NC(=O)Nc3ccccc3)cc21 ?
[A] 9.4

[Q] Which cytotoxicity at 70.5 h value belongs to CC(C)[C@]1(O)CN(C(=O)CNC(N)=O)C[C@H]1C ?
[A] -0.763

[Q] Which cytotoxicity at 70.5 h value belongs to CC(C)NC(=O)CCNC(=O)Nc1cnn(-c2ccccc2Cl)c1 ?
[A] -6.67

[Q] Which cytotoxicity at 70.5 h value belongs to CCc1cc(=O)[nH]c(-c2ccc(NC(C)CN3CCOCC3)nc2)n1 (configuration not stated) ?
[A] -0.904

[Q] Which cytotoxicity at 70.5 h value belongs to O=C(c1cccnc1)N1CCC2(CCN(C(=O)c3ccco3)CC2)C1 ?
[A] 2.92

[Q] Which cytotoxicity at 70.5 h value belongs to O=C(c1ccccc1-n1cccn1)N1CCC(Nc2cccnn2)CC1 ?
[A] -8.8
